Molecular target: T1, recombinant human ASM protein (human, UniProt P17405 47-630)
T1 construct: Recombinant human ASM in solution; also called acid sphingomyelinase (ASM) protein
T1 sequence: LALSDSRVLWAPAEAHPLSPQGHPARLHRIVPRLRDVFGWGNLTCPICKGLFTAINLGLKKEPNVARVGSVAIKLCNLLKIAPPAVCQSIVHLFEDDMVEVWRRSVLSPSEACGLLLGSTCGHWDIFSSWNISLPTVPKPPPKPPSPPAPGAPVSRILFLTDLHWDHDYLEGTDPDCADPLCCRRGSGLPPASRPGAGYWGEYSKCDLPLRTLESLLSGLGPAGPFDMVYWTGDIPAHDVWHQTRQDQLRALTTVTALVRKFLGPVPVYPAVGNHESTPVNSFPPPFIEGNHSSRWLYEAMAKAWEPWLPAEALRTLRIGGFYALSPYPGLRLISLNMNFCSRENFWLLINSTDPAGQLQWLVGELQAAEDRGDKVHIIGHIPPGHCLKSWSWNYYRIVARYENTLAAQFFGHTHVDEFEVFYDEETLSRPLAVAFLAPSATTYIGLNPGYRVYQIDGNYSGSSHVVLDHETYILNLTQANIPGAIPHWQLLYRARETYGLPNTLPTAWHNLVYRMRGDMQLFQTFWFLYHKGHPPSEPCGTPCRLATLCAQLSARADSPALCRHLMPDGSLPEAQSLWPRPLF
Experiment: BLI (Octet), antibody on AHC sensor
measurementName: kon (M⁻¹ s⁻¹)
Your answer is read as M⁻¹ s⁻¹, so omit the unit and give the number.

INSERT INTO assay_data (binder, measurementname, resultunits, numericvalue) VALUES
  ('#9104v-L63 (antibody, human IgG4 S228P, lambda, V domains shown, Full-length IgG, lambda) VH: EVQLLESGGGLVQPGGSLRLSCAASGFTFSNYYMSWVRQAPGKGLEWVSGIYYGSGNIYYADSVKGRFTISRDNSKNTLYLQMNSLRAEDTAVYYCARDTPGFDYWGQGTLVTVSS VL: QSVLTQPPSASGTPGQRVTISCTGSSSNIGNNAVNWYQQLPGTAPKLLIYYDSHRPSGVPDRFSGSKSGTSASLAISGLRSEDEADYYCGAWDYWLGAYVFGGGTKLTVLG', 'kon', 'M⁻¹ s⁻¹', 181000);

Proceeding to the next binder to report its kon.
Measured kon of #9104v-L21 (antibody, human IgG4 S228P, lambda, V domains shown, Full-length IgG, lambda) VH: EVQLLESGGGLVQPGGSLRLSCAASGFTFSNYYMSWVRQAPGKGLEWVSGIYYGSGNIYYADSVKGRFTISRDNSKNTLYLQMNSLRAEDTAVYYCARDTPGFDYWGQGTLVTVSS VL: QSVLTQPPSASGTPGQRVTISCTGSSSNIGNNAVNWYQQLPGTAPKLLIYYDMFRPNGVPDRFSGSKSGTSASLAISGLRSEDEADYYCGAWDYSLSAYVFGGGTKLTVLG : 243000
